target: NO synthase (Rattus norvegicus, UniProt P29476); construct: the supernatant was then removed by decantation and frozen in portions at −80° C; from tissue; host or cells: rat cerebellum, 20,000 g supernatant of homogenate; assay: HTS-NOS assay (NOS assay): conversion of radioactive arginine, cation-exchanger filter plate; assay type: biochemical; conditions: read-out: HTS-NOS assay: % inhibition (10 μM)
VALUE TYPE: inhibition at 10 µM (%)

{"columns": ["COMPOUND STRUCTURE STRING", "MEASURED ON", "RESULT UNITS", "inhibition at 10 µM"],
 "data": [
  ["CC(=O)N(c1c(C)nc2cc(C)cc(C)n12)C1CCCCC1", "NO synthase (Rattus norvegicus, UniProt P29476)", "%", 52],
  ["COC(=O)CN(C(C)=O)c1c(C2CCCCC2)nc2cc(C)ccn12", "NO synthase (Rattus norvegicus, UniProt P29476)", "%", 56],
  ["CC(=O)N(c1c(-c2cccnc2)nc2cc(C)ccn12)C1CCCCC1", "NO synthase (Rattus norvegicus, UniProt P29476)", "%", 67],
  ["CC(=O)N(c1c(-c2ccc(C(=O)O)o2)nc2cc(C)cc(C)n12)C1CCCCC1", "NO synthase (Rattus norvegicus, UniProt P29476)", "%", 70],
  ["CSc1ccc(-c2nc3cnccn3c2N(C(C)=O)C(C)(C)C)s1", "NO synthase (Rattus norvegicus, UniProt P29476)", "%", 53],
  ["Cc1ccn2c(NC(C)(C)C)c(C3CCCCC3)nc2c1", "NO synthase (Rattus norvegicus, UniProt P29476)", "%", 52],
  ["Cc1ccc2nc(-c3ccc(Cl)cc3Cl)c(Nc3c(C)cccc3C)n2c1", "NO synthase (Rattus norvegicus, UniProt P29476)", "%", 56],
  ["CC(=O)N(c1c(-c2ccc(C)cc2)nc2ccc(C)cn12)C(C)(C)CC(C)(C)C", "NO synthase (Rattus norvegicus, UniProt P29476)", "%", 58],
  ["CC(=O)N(c1c(C)cccc1C)c1c(C(C)(C)C)nc2cc(C)ccn12", "NO synthase (Rattus norvegicus, UniProt P29476)", "%", 68],
  ["Cc1ccn2c(NC3CCCCC3)c(-c3ccc(C(=O)O)o3)nc2c1", "NO synthase (Rattus norvegicus, UniProt P29476)", "%", 64],
  ["COc1ccccc1-c1nc2cc(C)cc(C)n2c1N(C(C)=O)c1c(C)cccc1C", "NO synthase (Rattus norvegicus, UniProt P29476)", "%", 54],
  ["CC(=O)N(c1c(-c2ccc(C3OCCO3)o2)nc2cccc(C)n12)C1CCCCC1", "NO synthase (Rattus norvegicus, UniProt P29476)", "%", 50],
  ["CCCCN(C(C)=O)c1c(-c2ccc(Cl)cc2Cl)nc2ncccn12", "NO synthase (Rattus norvegicus, UniProt P29476)", "%", 62],
  ["Cc1ccn2c(NC(C)(C)CC(C)(C)C)c(-c3ccccc3C)nc2c1", "NO synthase (Rattus norvegicus, UniProt P29476)", "%", 59],
  ["CC(=O)N(c1c(C)cccc1C)c1c(-c2ccccc2C)nc2cc(C)cc(C)n12", "NO synthase (Rattus norvegicus, UniProt P29476)", "%", 57],
  ["Cc1ccc(-c2nc3c(C)cccn3c2NC(C)(C)CC(C)(C)C)cc1", "NO synthase (Rattus norvegicus, UniProt P29476)", "%", 52],
  ["CC(=O)N(c1c(-c2ccccn2)nc2cc(C)ccn12)C(C)(C)C", "NO synthase (Rattus norvegicus, UniProt P29476)", "%", 57],
  ["Cc1ccccc1-c1nc2c(C)cccn2c1Nc1c(C)cccc1C", "NO synthase (Rattus norvegicus, UniProt P29476)", "%", 58]
]}

The reported numbers originate from patent US20040023972A1.
